tested on: HCT-15 colon; test: NCI tumour cell line growth inhibition, 48 h
reported.metric: TGI

Please provide the recorded TGI for CCOC(=O)NC , tested on HCT-15 colon. > 100 µM

Another molecule to look at: COc1cc(Cn2ccc3c2-c2oncc2CC3)cc(OC)c1 > 100 µM

Another molecule to look at: C[C@]12CCC3c4ccc(O)cc4CCC3C1Cc1ccc(O)cc12 (stereo partly specified) 19 µM

Another molecule to look at: C[C@H]1CCCCC[C@@H]2CC(=O)CC2C(=O)CCC(=O)O1 (stereo partly specified) > 100 µM

Another molecule to look at: COC(=O)n1c(=O)n(-c2ccccc2)c(=O)n1C(=O)Nc1ccccc1 > 100 µM

Another molecule to look at: CN1CCN(Cc2ccc(NC(=O)c3nc4ccc5[nH]ncc5c4c4c3CCC4)cc2C(F)(F)F)CC1 1.75 µM

Another molecule to look at: CC1(O)CC2(O)C=CC3=C(C(=O)c4cccc(O)c4C3=O)C2(O)C(=O)C1O (stereo unspecified) 2.98 µM

Another molecule to look at: COc1ccc2c(c1)CCCN1Cc3cc(OC)c(OC)cc3CC21 (stereo unspecified) > 100 µM

Another molecule to look at: CCCc1c(C(=O)OCC)[nH]c(-c2ccc(-c3[nH]c(C(=O)OCC)c(CCC)c3C(=O)OCC)o2)c1C(=O)OCC > 100 µM

Another molecule to look at: N#Cc1c(C#N)c(-c2ccco2)n(-c2ccccc2)c1N > 100 µM

Another molecule to look at: C/C=C/C(C#N)(Cc1ccccc1)OP1(=O)OC(c2ccccc2)C(C)N1C (stereo unspecified) > 100 µM

----------
test system: SF-539 CNS; test: NCI tumour cell line growth inhibition, 48 h
Would you mind telling me the reported GI50 of each entry?

Please provide the recorded GI50 for Nc1nc(N)c2c(ccc3nccc32)[nH]1 , tested on SF-539 CNS. 3.26 µM

Another compound to look at: COc1ccc2[nH]c(=O)c(/C=C/C(=O)/C=C/c3ccc(O)c(OC)c3)cc2c1 1.58 µM

Another compound to look at: O=C1c2ccccc2-c2n[nH]c3cccc1c23 25.1 µM

Another compound to look at: Cc1cc2c3ccccc3ccc2[n+]2ccccc12 3.47 µM

Another compound to look at: COc1ccc(-c2cc(-c3cn[nH]c3-c3ccccn3)ccn2)cc1 > 25 µM

Another compound to look at: O=C(Nc1ccccc1)NS(=O)(=O)c1ccc(N2N=C3c4ccccc4CC3C2c2ccccn2)cc1 (stereo unspecified) 30.6 µM

Another compound to look at: Cc1ccc2c(Nc3cccc(Cl)c3F)ncc(NC(=O)c3csc4c(N)ncnc34)c2c1 > 100 µM

Another compound to look at: Nc1ccn(C2CC(O)C(CO)O2)c(=O)n1 (stereo unspecified) > 5000 µM

Another compound to look at: CCN(C(=O)CCl)C(C)(C)C(SSSC(c1ccc(Cl)cc1)C(C)(C)N(CC)C(=O)CCl)c1ccc(Cl)cc1 (stereo unspecified) 3.14 µM

Another compound to look at: N#CSCc1c(Cl)cccc1Cl 3.45 µM

Another compound to look at: C=CC(=O)N1CCC([C@@H]2CCNc3c(C(N)=O)c(-c4ccc(Oc5ccccc5)cc4)nn32)CC1 16.8 µM

----------
tested on: UACC-62 melanoma; assay: NCI tumour cell line growth inhibition, 48 h
Rule: TGI of 20 µM or more gives t; anything lower gives f.

Is it the case that COc1ccc(CC2c3cc(OC)c(OC)c(OC)c3CC[N+]2(C)C)cc1Oc1ccc(CC2c3cc4c(c(OC)c3CCN2C)OCO4)cc1 (centres undefined) has TGI reaching or exceeding 20 µM? t

Another molecule to look at: COc1cc([C@@H]2c3cc4c(cc3[C@@H](NCc3ccccc3)C3COC(=O)[C@@H]32)OCO4)cc(OC)c1O (some centres undefined) t

Another molecule to look at: C#C[C@@]1(O)[C@@H](CO)O[C@@H](n2ccc3c(N)ncnc32)[C@@H]1O f

Another molecule to look at: CC1(C)N=C(N)N=C(N)N1c1cccc(CCCCc2ccccc2)c1 f

Another molecule to look at: COc1ccccc1N1C(=O)CS(=O)(=O)C1c1cccc(Oc2ccccc2)c1 (centres undefined) t

Another molecule to look at: NC(=O)Nc1cc(O)ccc1N=Nc1ccc(S(=O)(=O)Nc2ccccn2)cc1 t

Another molecule to look at: O=C1c2ccccc2C(=O)c2c1ccc(C(=O)O)c2-c1ccc2ccccc2c1 t

Another molecule to look at: CC1=CC2=C(C(N)=O)C(=O)OC2(C)C(c2ccccc2)C1 (centres undefined) t

Another molecule to look at: CCCN(CCC)c1cc2c(cc1F)c(=O)c(C(=O)O)cn2-c1ccc(N2CCN(C)CC2)cn1 t

----------
test system: OVCAR-5 ovarian; test: NCI tumour cell line growth inhibition, 48 h
Would you mind telling me the reported TGI of each entry?

Data request, read-out TGI, for COc1ccc(OC)c(C#Cc2ccc(OC)c(C(=O)NCCc3ccc(F)cc3)c2)c1 > 100 µM

Another molecule to look at: CCOC(=O)CCC(C(=O)OCC)n1nnc2ccc(Nc3c(C)[n+]([O-])c4cc(Cl)ccc4[n+]3[O-])cc21 (centres undefined) > 100 µM

Another molecule to look at: Cc1cc(S(=O)(=O)NC2=NC(c3ccccc3)c3ccccc3N2)c(S)cc1Cl (centres undefined) > 100 µM

Another molecule to look at: N#Cc1cccc(/C=C(/C(=O)c2ccccc2)c2ccccc2)c1 29.1 µM

Another molecule to look at: CCCN(CCC)c1cc2c(cc1F)c(=O)c(C(=O)O)cn2-c1ccc(N2CCN(C)CC2)cn1 41.3 µM

Another molecule to look at: Cc1nc(-c2cc3c(ccc4ccccc43)oc2=O)cc2c1c(=O)oc1ccc3ccccc3c12 > 100 µM

Another molecule to look at: O=C1OC(C2=CC(=O)c3ccccc3C2=O)C(Cl)=C1Cl (centres undefined) > 100 µM

Another molecule to look at: CC1(C)CC(=O)c2c(ccc(C(=O)C[C@H](N)CO)c2N)O1 > 33.3 µM

Another molecule to look at: COc1ccc2[nH]c(=O)c(/C=C/C(=O)/C=C/c3ccc(O)c(OC)c3)cc2c1 3.66 µM

Another molecule to look at: O=C(Nc1ccccc1)NS(=O)(=O)c1ccc(N2N=C3c4ccccc4CC3C2c2ccccn2)cc1 (centres undefined) 97.9 µM

Another molecule to look at: O=C(O)c1nc2ccccc2nc1Nc1ccc(F)cc1 > 100 µM

Another molecule to look at: CN1CCN(Cc2ccc(NC(=O)c3nc4ccc5[nH]ncc5c4c4c3CCC4)cc2C(F)(F)F)CC1 2.41 µM

Another molecule to look at: O=C(Nc1nnc(-c2c(Cl)c(Cl)c(Cl)c(Cl)c2-c2nc3cc(C(=O)c4ccccc4)ccc3[nH]2)o1)c1ccccc1 55.7 µM

Another molecule to look at: O=C1[C@@H]2C3SC(c4ccccc43)[C@@H]2C(=O)N1c1ccccc1 > 100 µM

Another molecule to look at: CCOC(=O)N1N=NC2C3OC(C[C@@]3(C#N)OC(C)=O)[C@H]21 (some centres undefined) > 100 µM

Another molecule to look at: Cc1cc(S(=O)(=O)n2ccnc2Oc2ccccc2)c(SSc2cc(Cl)c(C)cc2S(=O)(=O)n2ccnc2Oc2ccccc2)cc1Cl > 100 µM

Another molecule to look at: CCCc1c(C(=O)OCC)[nH]c(-c2ccc(-c3[nH]c(C(=O)OCC)c(CCC)c3C(=O)OCC)o2)c1C(=O)OCC > 100 µM

Another molecule to look at: CCN(CC)CCCOc1cc(O)c2c(=O)cc(-c3ccccc3)oc2c1 25.7 µM

Another molecule to look at: Nc1c(C(=O)c2cccc(CCC3(O)CCCC3)c2)cnn1-c1ccc(F)cc1 > 25 µM

----------
test system: HCT-15 colon; test: NCI tumour cell line growth inhibition, 48 h
Would you mind telling me the reported TGI of each entry?

Data request, read-out TGI, for CC[N+]1(C)CCC(O)(c2ccccc2)C(C(=O)c2ccccc2)C1 (stereo not drawn) 21.8 µM

Another compound to look at: CCCCCCCCCC1C(C)c2c([nH]c3ccccc23)C2C(=O)N(c3ccccc3)C(=O)C21 (stereo not drawn) 23 µM

Another compound to look at: COc1ccc(-c2cc(-c3cn[nH]c3-c3ccccn3)ccn2)cc1 > 25 µM

Another compound to look at: COc1cc2ccnc3c2c(c1OC)-c1ccc(=O)ccc1-3 77.1 µM

Another compound to look at: COc1ccc([C@H]2C=C(c3cc(F)c(Cl)cc3Cl)NC(=S)N2)cc1 > 100 µM

Another compound to look at: Cc1ccccc1-c1c(N)nc(N)nc1C(=O)Nc1nccs1 > 100 µM

Another compound to look at: NNc1ccccc1Cl > 100 µM

Another compound to look at: O=C(O)Cc1cccc2c1OC(c1ccccc1)C(C(=O)c1ccccc1)C2=O (stereo not drawn) > 100 µM

Another compound to look at: Cc1cc(S(=O)(=O)n2ccnc2Oc2ccccc2)c(SSc2cc(Cl)c(C)cc2S(=O)(=O)n2ccnc2Oc2ccccc2)cc1Cl > 100 µM

Another compound to look at: COc1ccc2c(c1)sc1nc(-c3ccccc3)c(-c3ccc(O)c(OC)c3)n12 > 100 µM

Another compound to look at: CCC[CH2][Sn]([CH2]CCC)([O]C(=O)c1cc(OC)c(OC)cc1OC)[O]C(=O)c1cc(OC)c(OC)cc1OC 2.92 µM

Another compound to look at: O=C1c2ccccc2-c2n[nH]c3cccc1c23 > 100 µM

Another compound to look at: Cc1ccc2c(Nc3cccc(Cl)c3F)ncc(NC(=O)c3csc4c(N)ncnc34)c2c1 > 100 µM

Another compound to look at: CCC[CH2][Ge]([CH2]CCC)([CH2]CCC)[O]C(=O)C(O)c1ccccc1 (stereo not drawn) 14.2 µM

Another compound to look at: O=C1C[C@@H](Sc2ccccc2)C2(OCCO2)[C@H]2ON3CCC[C@@H]3[C@@H]12 9.7 µM

Another compound to look at: CCOC(=O)N1N=NC2C3OC(C[C@@]3(C#N)OC(C)=O)[C@H]21 (stereo partly drawn) > 100 µM

Another compound to look at: CCc1ccc(Nc2cc(=O)[nH]c(=S)n2C)cc1 > 100 µM

Another compound to look at: N#CCN1CCOCCOCCN(CC#N)CCOCCOCC1 > 100 µM

Another compound to look at: CC(C)Oc1ccc(CNC2=NCCO2)c2ccccc12 29.8 µM

Another compound to look at: CC(C)=C[C@@H]1C[C@H](C)c2c(O)cc(C)c3c2C1=C(C)C(=O)C3=O 29.4 µM

Another compound to look at: CCN(CC)CCCOc1cc(O)c2c(=O)cc(-c3ccccc3)oc2c1 14.6 µM

Another compound to look at: COc1cc([C@@H]2c3cc4c(cc3[C@@H](NCc3ccccc3)C3COC(=O)[C@@H]32)OCO4)cc(OC)c1O (stereo partly drawn) 33.5 µM

Another compound to look at: O=C(NCCNCCNCCNC(=O)c1cc(-c2ccccc2)nc2ccccc12)c1cc(-c2ccccc2)nc2ccccc12 18.9 µM

Another compound to look at: COc1cc2nc(-c3ccccc3F)[nH]c(=O)c2cc1OC > 100 µM

Another compound to look at: Cc1ccsc1C(=O)C(CC(=O)c1cccs1)c1ccsc1 (stereo not drawn) > 100 µM

Another compound to look at: O=C(OCC1OC(OC(=O)c2cc(O)c(O)c(OC(=O)c3cc(O)c(O)c(O)c3)c2)C(OC(=O)c2cc(O)c(O)c(OC(=O)c3cc(O)c(O)c(O)c3)c2)C(OC(=O)c2cc(O)c(O)c(OC(=O)c3cc(O)c(O)c(O)c3)c2)C1OC(=O)c1cc(O)c(O)c(OC(=O)c2cc(O)c(O)c(O)c2)c1)c1cc(O)c(O)c(OC(=O)c2cc(O)c(O)c(O)c2)c1 (stereo not drawn) > 50 µM

Another compound to look at: Cc1cccc(NC(=O)CCl)c1 > 10 µM

Another compound to look at: S=C(N/N=C(/c1ccccc1)c1ccccn1)Nc1ccc(Cl)cc1 11.2 µM

Another compound to look at: Nc1ccc(Nc2c3ccccc3nc3ccccc23)cc1 > 10 µM

Another compound to look at: CC1=C(C(=O)CC(=O)C(=O)Nc2ccccc2)Sc2ccccc2N1 > 100 µM

Another compound to look at: Nc1nc(Cl)cc(NCC2(CO)CCC(O)C2)n1 (stereo not drawn) > 100 µM

Another compound to look at: CC(=O)OCC1OC(n2c(=O)n(-c3ccccc3)c(=O)c3cc(Br)cc(Br)c32)C(OC(C)=O)C(OC(C)=O)C1OC(C)=O (stereo not drawn) > 100 µM

Another compound to look at: CC(=O)C1C(=O)C(=O)N(c2ccccc2N2C(=O)C(=O)C(C(C)=O)C2=O)C1=O (stereo not drawn) > 100 µM

Another compound to look at: COc1ccccc1N1C(=O)CS(=O)(=O)C1c1cccc(Oc2ccccc2)c1 (stereo not drawn) 36.2 µM

Another compound to look at: Cc1ccc2c(c1)SC(c1cc3c(cc1Br)OCO3)S2 (stereo not drawn) > 31.6 µM

Another compound to look at: N#CSCc1c(Cl)cccc1Cl > 100 µM

Another compound to look at: Cc1ccc(S(=O)(=O)SCc2ccccc2CSS(=O)(=O)c2ccc(C)cc2)cc1 48.6 µM

Another compound to look at: O=C1/C(=C/c2ccccc2)N=C(c2ccccc2)N1C1Nc2cc3c(cc2S1)NC(N1C(=O)/C(=C/c2ccccc2)N=C1c1ccccc1)S3 (stereo not drawn) 82.9 µM
